B1: HDV Ribozyme (parent)
chain: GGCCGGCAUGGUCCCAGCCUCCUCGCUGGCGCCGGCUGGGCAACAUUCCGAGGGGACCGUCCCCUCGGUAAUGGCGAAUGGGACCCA

variants of: B1; assay: self-cleavage, relative activity (ratio to wild type); higher = more cleavage; co-transcriptional
property_measured: self-cleavage
Form field (numeric): enter value without unit.

{"variant_description": "U12C U79A", "self-cleavage": 0.0615}

GET /values?readout=self-cleavage&item= G74A
0.478

What would you report for U65G G80U ?
0.261

// query: G10U G59A
0.636

What about this variant? C4A G50A
0.172

Same lookup for G38C C49A , please.
0.237

// same read-out, input: A8C G31C
0.119

Also U47A U72G , if possible.
0.665

meta.source: the RNAGym collection of RNA variant scans (doi:10.7554/elife.80360)
